Target: Cytochrome P450 3A4 (Homo sapiens)
Sequence (P08684 whole entry): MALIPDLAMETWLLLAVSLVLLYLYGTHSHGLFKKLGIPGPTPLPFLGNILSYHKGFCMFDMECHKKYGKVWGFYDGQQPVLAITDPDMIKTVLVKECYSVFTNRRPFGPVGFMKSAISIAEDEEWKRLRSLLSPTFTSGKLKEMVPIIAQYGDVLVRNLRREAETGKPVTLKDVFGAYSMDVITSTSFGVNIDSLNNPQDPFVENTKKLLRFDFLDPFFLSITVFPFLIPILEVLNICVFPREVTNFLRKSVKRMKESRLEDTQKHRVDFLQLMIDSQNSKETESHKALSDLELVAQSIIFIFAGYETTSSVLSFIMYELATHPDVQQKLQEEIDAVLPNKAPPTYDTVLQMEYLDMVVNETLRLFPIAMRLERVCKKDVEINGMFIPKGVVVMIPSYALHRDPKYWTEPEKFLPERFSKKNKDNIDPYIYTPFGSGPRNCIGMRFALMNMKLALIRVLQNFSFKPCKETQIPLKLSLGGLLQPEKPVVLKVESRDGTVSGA
property_measured: IC50

>  <molecule_smiles>
CN(C)C1CCN(C(=O)c2ccc(N3N=C(c4ccccc4)/C(=N/Nc4ccccc4)C3=O)cc2)CC1

>  <result>
> 50 µM

$$$$

###

Conditions: human, microsomes, 1 h, 100 µM

>  <molecule_smiles>
O=C(O)Cc1ccccc1Nc1c(Cl)cccc1Cl

>  <endpoint_unit>
µL/min/mg

>  <value_relation_sign>
=

>  <CLint>
203

$$$$
>  <molecule_smiles>
CN(C)C1CCN(C(=O)c2ccc(N3N=C(c4ccccc4)/C(=N/Nc4ccccc4)C3=O)cc2)CC1

>  <endpoint_unit>
µL/min/mg

>  <value_relation_sign>
<

>  <CLint>
9.6

$$$$
>  <molecule_smiles>
O=C1/C(=N\Nc2nccs2)C(c2ccccc2)=NN1c1nc(-c2ccccc2)cs1

>  <endpoint_unit>
µL/min/mg

>  <value_relation_sign>
=

>  <CLint>
21.3

$$$$
>  <molecule_smiles>
C[C@]12CC[C@H]3[C@@H](CCC4=CC(=O)CC[C@@]43C)[C@@H]1CC[C@@H]2O

>  <endpoint_unit>
µL/min/mg

>  <value_relation_sign>
=

>  <CLint>
106

$$$$
